[
  {
    "Molecule": "O=C(O)C1=CS[C@@H]2[C@@H]([C@H](O)c3cn4c(n3)SCC4)C(=O)N12",
    "melting point": "152 °C"
  },
  {
    "Molecule": "N#CC(c1ccccc1)(c1ccccc1)[C@H]1CCCN(CCc2ccc(CO)cc2)C1",
    "melting point": "110 to 114 °C"
  },
  {
    "Molecule": "CC(=O)Oc1ccc2c(c1)C[C@H]1CCCN(C(C)=O)[C@H]1C2 (relative stereo)",
    "melting point": "108 to 113 °C"
  },
  {
    "Molecule": "O=C1Nc2cccnc2N(C(=O)N2CCCC(CCN3CCCC3)C2)c2cc(Cl)ccc21 (centres undefined)",
    "melting point": "136 to 139 °C"
  }
]
